Origin of the recorded values: patent US7884127B2

{"columns": ["Molecule", "melting point"],
 "data": [
  ["CNc1ccc(Cl)c(-c2cc(=O)c3c(O)cc(O)c([C@@H]4CCN(C)[C@H]4CO)c3o2)c1 (racemic) [Example 102]", "208 to 210 °C"],
  ["CN1CC[C@@H](c2c(O)cc(O)c3c(=O)cc(-c4ccc([N+](=O)[O-])cc4Br)oc23)[C@@H]1CO [Example 42]", "186 °C"],
  ["COc1cc(OC)c2c(=O)cc(-c3ccccc3Cl)oc2c1[C@@H]1CCN(C)[C@H]1CO [Example 13]", "91 to 93 °C"],
  ["COc1cc(OC)c2c(=O)cc(-c3ccccc3Cl)oc2c1[C@@H]1CCN(C)[C@H]1CO (racemic) [Example 7]", "95 to 97 °C"],
  ["CN1CC[C@@H](c2c(O)cc(O)c3c(=O)cc(-c4cc(O)ccc4Cl)oc23)[C@@H]1CO.Cl", "189 to 190 °C"],
  ["CN1CC[C@@H](c2c(O)cc(O)c3c(=O)cc(-c4ccc(N)cc4)oc23)[C@@H]1CO [Example 94]", "172 to 174 °C"],
  ["CN1CC[C@@H](c2c(O)cc(O)c3c(=O)cc(-c4ccc(Br)cc4Cl)oc23)[C@@H]1CO [Example 100]", "155 to 156 °C"],
  ["CN1CC[C@@H](c2c(O)cc(O)c3c(=O)cc(-c4cccc(F)c4Cl)oc23)[C@@H]1CO [Example 134]", "221 to 223 °C"]
]}
